- experimental.target: KOR (Homo sapiens, UniProt P41145)
- Sequence (P41145 whole entry): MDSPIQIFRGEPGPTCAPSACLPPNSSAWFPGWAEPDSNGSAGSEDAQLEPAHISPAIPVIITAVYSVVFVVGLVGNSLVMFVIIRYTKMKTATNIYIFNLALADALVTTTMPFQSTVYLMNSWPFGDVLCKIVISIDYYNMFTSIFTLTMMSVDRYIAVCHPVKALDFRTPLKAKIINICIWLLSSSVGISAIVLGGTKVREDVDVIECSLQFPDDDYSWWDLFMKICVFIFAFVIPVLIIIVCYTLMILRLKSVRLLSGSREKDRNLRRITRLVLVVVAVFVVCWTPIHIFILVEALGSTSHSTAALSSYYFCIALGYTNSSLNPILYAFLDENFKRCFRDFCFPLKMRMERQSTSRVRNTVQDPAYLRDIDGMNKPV
- Assay type: binding
- settings: read-out: Ki a
Below: a set of entries, each annotated with reported Ki.
Hi! Could you send only the number? It should be in nM, unit omitted.

// below: answered compounds
COC(=O)C1CC(OC(=O)C(Cl)Cl)C(=O)C2C1(C)CCC1C(=O)OC(c3ccoc3)CC12C (stereo not drawn) :: 911
COC(=O)C1CC(OC(=O)C(C)Cl)C(=O)C2C1(C)CCC1C(=O)OC(c3ccoc3)CC12C [RB-55, (22-R,S)-22-Chloro-22-methylsalvinorin A] :: 21

We now examine a further compound.
q: Lab note: record Ki of COC(=O)[C@@H]1C[C@H](OC(=O)CBr)C(=O)[C@H]2[C@@]1(C)CC[C@H]1C(=O)O[C@H](c3ccoc3)C[C@]21C tested on KOR (Homo sapiens, UniProt P41145).
a: 1.5

// provenance: paper PMC2752672
